tested on: KM12 colon; test: NCI-60 one-dose screen, 48 h; settings: 10 µM unless noted
Compounds without any hit were thinned out: in the full panel of roughly 83,000, 20% have a hit. Active and inactive are the calls of the source. The calls were made as follows: active = growth percent below 10; inactive = the rest.
Respond using exactly one of the listed classes: 1.0 = active, 0.0 = inactive

Use these answered entries as a reference point.
| compound | experimental system | answer label |
| --- | --- | --- |
| O=C1Nc2ccccc2/C1=C/c1cn(C[C@@H](O)Cn2c3ccccc3c(=O)c3ccccc32)c2ccccc12 | KM12 colon | 0.0 |
| CCC(CC)(N(CC(=O)O)CC(=O)O)C(CC)(CC)N(CC(=O)O)CC(=O)O | KM12 colon | 0.0 |
| CCCCCCCCCCCCCCCCCCOc1ccccc1CC(=O)OCC[N+]1(C)CCOCC1 | KM12 colon | 0.0 |
| O=C(/C=C/c1cccc(Cl)c1)c1cccc(OCCCCOc2cccc(C(=O)/C=C/c3cccc(Cl)c3)c2)c1 | KM12 colon | 0.0 |
| C/C(=N\Nc1nc(C)cs1)c1cc2ccccc2o1 | KM12 colon | 0.0 |

In this assay, the call recorded for CCOC(=O)c1c(NC(=O)c2ccc(C(C)(C)C)cc2)sc2cc(O)ccc12 was what?
0.0

In this assay, the call recorded for O=C(CSc1nc2ccc([N+](=O)[O-])cc2[nH]1)Nc1cccc([N+](=O)[O-])c1 was what?
0.0
